These measurements were taken from patent US10385108B2.

Target: MC1R (Homo sapiens, UniProt Q01726)
Sequence (Q01726 whole entry): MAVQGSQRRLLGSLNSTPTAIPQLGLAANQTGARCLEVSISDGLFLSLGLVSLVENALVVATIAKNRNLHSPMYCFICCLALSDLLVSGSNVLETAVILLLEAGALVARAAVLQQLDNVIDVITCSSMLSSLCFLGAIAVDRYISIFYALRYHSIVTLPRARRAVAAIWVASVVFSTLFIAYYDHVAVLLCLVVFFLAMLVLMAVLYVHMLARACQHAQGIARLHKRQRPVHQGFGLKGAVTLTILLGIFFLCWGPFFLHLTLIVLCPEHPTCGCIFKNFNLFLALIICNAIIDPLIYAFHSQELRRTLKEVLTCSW
Assay: Competitive binding with 125I-NDP-MSH, HEK293 membrane preparations, MC1R;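 also: Read-out: receptor-bound radioligand retained by filtration and counted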
Details: Ki MC1R, competition with 125I-NDP-MSH
Where a SMILES comes first, the peptide text is derived from it. [ ]: non-standard residue; d: D form. dNle = CCCC[C@@H](N)C(=O)O
pKi: recorded values
Kindly note that pKi refers to -log10 of the concentration in mol/L and answer with the value alone.

Some solved cases for reference:
compound	measured_target	pKi
CCCC[C@@H](NC(=O)[C@H]1CCCN1C(=O)[C@H](NC(C)=O)C(C)C)C(=O)NCC(=O)N[C@H](Cc1c[nH]c2ccccc12)C(=O)N[C@H](CCCNC(=N)N)C(=O)N[C@H](Cc1ccccc1)C(=O)N[C@H](Cc1c[nH]cn1)C(=O)N[C@H](CCC(=O)O)C(=O)N[C@H](CCSC)C(=O)N[C@H](CO)C(=O)N[C@H](Cc1ccc(O)cc1)C(=O)N[C@H](CO)C(N)=O [compound 858, vp(D-Norleucine)Gwrfhemsys] (Ac-[dV][dP][dNle]G[dW][dR][dF][dH][dE][dM][dS][dY][dS]-NH2)	MC1R (Homo sapiens, UniProt Q01726)	7.74
CSCC[C@@H](NC(=O)[C@@H](CCC(=O)O)NC(=O)[C@@H](Cc1c[nH]cn1)NC(=O)[C@@H](Cc1ccccc1)NC(=O)[C@@H](CCCNC(=N)N)NC(=O)[C@@H](Cc1c[nH]c2ccc(O)cc12)NC(=O)CNC(=O)[C@@H](CCCCN)NC(=O)[C@H]1CCCN1C(=O)[C@H](NC(C)=O)C(C)C)C(=O)N[C@H](CO)C(=O)N[C@H](Cc1ccc(O)cc1)C(=O)N[C@H](CO)C(N)=O [compound 860, vpkG(5-hydroxy-D-Trp)rfhemsys]	MC1R (Homo sapiens, UniProt Q01726)	7.02
CSCC[C@@](C)(NC(=O)[C@@H](CCC(=O)O)NC(=O)[C@@H](Cc1c[nH]cn1)NC(=O)[C@@H](Cc1ccccc1)NC(=O)[C@@H](CCCNC(=N)N)NC(=O)[C@@H](Cc1c[nH]c2ccccc12)NC(=O)CNC(=O)[C@@H](CCCCN)NC(=O)[C@H]1CCCN1C(=O)[C@H](NC(C)=O)C(C)C)C(=O)N[C@H](CO)C(=O)N[C@H](Cc1ccc(O)cc1)C(=O)N[C@H](CO)C(N)=O [compound 877, vpkGwrfhe(α-methyl-D-Met)sys]	MC1R (Homo sapiens, UniProt Q01726)	6.55
CSCC[C@@H](NC(=O)[C@@H](CCC(=O)O)NC(=O)[C@@H](Cc1c[nH]cn1)NC(=O)[C@@H](Cc1ccccc1)NC(=O)[C@@H](Cc1c[nH]cn1)NC(=O)[C@@H](Cc1c[nH]c2ccccc12)NC(=O)CNC(=O)[C@@H](CCCCN)NC(=O)[C@H]1CCCN1C(=O)[C@H](NC(C)=O)C(C)C)C(=O)N[C@H](CO)C(=O)N[C@H](Cc1ccc(O)cc1)C(=O)N[C@H](CO)C(N)=O [compound 865, vpkGwhfhemsys] (Ac-[dV][dP][dK]G[dW][dH][dF][dH][dE][dM][dS][dY][dS]-NH2)	MC1R (Homo sapiens, UniProt Q01726)	5.64

Field: next compound
Specify reported pKi for the compound shown: CSCC[C@@H](NC(=O)[C@@H](CCC(=O)O)NC(=O)[C@@H](C)NC(=O)[C@@H](Cc1ccccc1)NC(=O)[C@@H](CCCNC(=N)N)NC(=O)[C@@H](Cc1c[nH]c2ccccc12)NC(=O)CNC(=O)[C@@H](CCCCN)NC(=O)[C@H]1CCCN1C(=O)[C@H](NC(C)=O)C(C)C)C(=O)N[C@H](CO)C(=O)N[C@H](Cc1ccc(O)cc1)C(=O)N[C@H](CO)C(N)=O [compound 809, vpkGwrfaemsys] (Ac-[dV][dP][dK]G[dW][dR][dF][dA][dE][dM][dS][dY][dS]-NH2)
5.92
